- EXPERIMENT_SUMMARY: Whole blood stability assay
- Format: in vitro ADME
- CONDITION_SUMMARY: prodrug 50 nM, fresh pooled human whole blood, 37 degrees C.; read-out: t1/2 at 37 degrees C. in human whole blood
MEASURED_METRIC: half-life at 50 nM (min)
Numbers only; they are read as min.

Kindly note the recorded half-life at 50 nM for "O=C(Cc1cccc2cccc(CC(=O)Oc3ccc4c5c3O[C@H]3C(=O)CC[C@@]6(O)[C@@H](C4)N(CC4CC4)CC[C@]536)c12)Oc1ccc2c3c1O[C@H]1C(=O)CC[C@@]4(O)[C@@H](C2)N(CC2CC2)CC[C@]314" , which is 40.9

In plain terms, "O=C(Cc1ccc2c(F)c(CC(=O)Oc3ccc4c5c3O[C@H]3C(=O)CC[C@@]6(O)[C@@H](C4)N(CC4CC4)CC[C@]536)ccc2c1F)Oc1ccc2c3c1O[C@H]1C(=O)CC[C@@]4(O)[C@@H](C2)N(CC2CC2)CC[C@]314" has a documented half-life at 50 nM of 20.4

For reference, reported half-life at 50 nM for "Cc1c(CC(=O)Oc2ccc3c4c2O[C@H]2C(=O)CC[C@@]5(O)[C@@H](C3)N(CC3CC3)CC[C@]425)ccc2c(C)c(CC(=O)Oc3ccc4c5c3O[C@H]3C(=O)CC[C@@]6(O)[C@@H](C4)N(CC4CC4)CC[C@]536)ccc12" stands at 58.6

So for "COc1c(CC(=O)Oc2ccc3c4c2O[C@H]2C(=O)CC[C@@]5(O)[C@@H](C3)N(CC3CC3)CC[C@]425)ccc2c(OC)c(CC(=O)Oc3ccc4c5c3O[C@H]3C(=O)CC[C@@]6(O)[C@@H](C4)N(CC4CC4)CC[C@]536)ccc12" , the logged half-life at 50 nM turned out to be 28.9

----------
Give measured half-life at 50 nM for each item. Keep answers brief.
- EXPERIMENT_SUMMARY: Whole blood stability assay
- Type: in vitro ADME
- CONDITION_SUMMARY: prodrug 50 nM, fresh pooled human whole blood, 37 degrees C.; read-out: t1/2 at 37 degrees C. in human whole blood
# value in min; strip the unit string

Lookup result for "O=C(CCc1ccc2cc(CCC(=O)Oc3ccc4c5c3O[C@H]3C(=O)CC[C@@]6(O)[C@@H](C4)N(CC4CC4)CC[C@]536)ccc2c1)Oc1ccc2c3c1O[C@H]1C(=O)CC[C@@]4(O)[C@@H](C2)N(CC2CC2)CC[C@]314" ; measured half-life at 50 nM: 26.3

// recorded half-life at 50 nM for "CC(=O)Oc1c(CC(=O)Oc2ccc3c4c2O[C@H]2C(=O)CC[C@@]5(O)[C@@H](C3)N(CC3CC3)CC[C@]425)ccc2c(OC(C)=O)c(CC(=O)Oc3ccc4c5c3O[C@H]3C(=O)CC[C@@]6(O)[C@@H](C4)N(CC4CC4)CC[C@]536)ccc12" : 14.8

Lab book: half-life at 50 nM of "O=C(Cc1ccc2cc(CC(=O)Oc3ccc4c5c3O[C@H]3C(=O)CC[C@@]6(O)[C@@H](C4)N(CC4CC4)CC[C@]536)ccc2c1)Oc1ccc2c3c1O[C@H]1C(=O)CC[C@@]4(O)[C@@H](C2)N(CC2CC2)CC[C@]314" noted as 20.9

Looking up O=C(Oc1ccc2c3c1O[C@H]1C(=O)CC[C@@]4(O)[C@@H](C2)N(CC2CC2)CC[C@]314)c1ccc(C(=O)Oc2ccc3c4c2O[C@H]2C(=O)CC[C@@]5(O)[C@@H](C3)N(CC3CC3)CC[C@]425)cc1 [Reference Compound A, NTX-3-terephthaloyl-NTX, reference compound] , I see its half-life at 50 nM listed as 54.7

Looking up "O=C(Cc1ccc2ccc(CC(=O)Oc3ccc4c5c3O[C@H]3C(=O)CC[C@@]6(O)[C@@H](C4)N(CC4CC4)CC[C@]536)cc2c1)Oc1ccc2c3c1O[C@H]1C(=O)CC[C@@]4(O)[C@@H](C2)N(CC2CC2)CC[C@]314" , I see its half-life at 50 nM listed as 14.7

----------
- EXPERIMENT_SUMMARY: Whole blood stability assay
- Format: in vitro ADME
- CONDITION_SUMMARY: prodrug 50 nM, fresh pooled human whole blood, 37 degrees C.; read-out: t1/2 at 37 degrees C. in human whole blood
- Description: Naltrexone prodrug stability was assessed using freshly collected whole blood (within 24-hr collection) from pooled human (n=3) donors. The incubation mixtures were prepared by spiking the prodrugs into pre-warmed (37 degrees C.) fresh whole blood to a final concentration of 50 nM. […] The amount of remaining prodrug and released naltrexone for each sample was quantitated against the calibration curves prepared with the whole blood. […]
I'd appreciate it if you could supply half-life at 50 nM values for the items below.
# output: bare number, implied unit min

half-life at 50 nM for "O=C(Cc1ccc2c(Cl)c(CC(=O)Oc3ccc4c5c3O[C@H]3C(=O)CC[C@@]6(O)[C@@H](C4)N(CC4CC4)CC[C@]536)ccc2c1Cl)Oc1ccc2c3c1O[C@H]1C(=O)CC[C@@]4(O)[C@@H](C2)N(CC2CC2)CC[C@]314" is 25.7

The recorded half-life at 50 nM for "O=C(Cc1cccc2c(CC(=O)Oc3ccc4c5c3O[C@H]3C(=O)CC[C@@]6(O)[C@@H](C4)N(CC4CC4)CC[C@]536)cccc12)Oc1ccc2c3c1O[C@H]1C(=O)CC[C@@]4(O)[C@@H](C2)N(CC2CC2)CC[C@]314" is 26.4
